Tested on: COLO 205 colon
METHOD SUMMARY: NCI-60 one-dose screen, 48 h (100 = growth as untreated, 0 = no growth, -100 = all killed)
SETUP CONDITIONS: 10 µM unless noted
This is part of a sample that, as a whole, favours compounds with a hit. Of some 83,000 tested, about 20% had one in any assay.
Threshold check on growth: at or above 80% gives 1, strictly below gives 0.

{"COMPOUND": "Clc1ccc(CNc2ccc3nc(CCC4CCCCC4)[nH]c3c2)cc1", "CATEGORY": 0}
{"COMPOUND": "COC1/C=C/OC2(C)Oc3c(C)c(O)c4c(O)c(c(C=NOC(c5ccccc5)c5ccccc5)c(O)c4c3C2=O)NC(=O)/C(C)=C/C=C/C(C)C(O)C(C)C(O)C(C)C(OC(C)=O)C1C (stereo not drawn)", "CATEGORY": 0}
{"COMPOUND": "COc1ccc(Nc2ncnc3ccc(-c4cncc(NS(C)(=O)=O)c4)cc23)cc1Cl", "CATEGORY": 0}
{"COMPOUND": "C[C@@H]1CC[C@@H]2[C@@H]1[C@H](OC(=O)/C=C/c1ccccc1)[C@]1(c3ccccc3)C[C@@H](NC(=O)CO)[C@@]2(C)O1", "CATEGORY": 1}
{"COMPOUND": "Cc1ccc(Cl)cc1N1CCN(C(=O)[C@@H]2C[C@@H]2c2ccc(F)cc2)CC1", "CATEGORY": 1}
{"COMPOUND": "COc1ccc(C/C(C)=C(/c2ccc(OCCN3CCCC3)cc2)c2ccc(OC(=O)NCc3ccccc3)cc2)cc1", "CATEGORY": 0}
{"COMPOUND": "Cc1ccc(-c2nc([P+](c3ccccc3)(c3ccccc3)c3ccccc3)c(Nc3ccccc3)o2)cc1", "CATEGORY": 0}
{"COMPOUND": "COC1=CC(=O)C(OC)=C(O)C1=O", "CATEGORY": 1}

====

Tested on: UO-31 renal
METHOD SUMMARY: NCI-60 one-dose screen, 48 h
SETUP CONDITIONS: 10 µM unless noted
Method: Growth inhibition of the UO-31 human tumor cell line is measured as a screen for anti-cancer activity. Cells are grown in 96 well plates and exposed to the test compound for 48 hours. Compounds are tested at a single concentration, which is 10^-5 M for most compounds. The reported endpoint is percent growth (GI% or GIPRCNT), where numbers from 0 - 100% represent growth inhibition, and numbers from -100% - 0 represent cell death. For example, a value of 40 represents 60% growth inhibition. […]
About 83,000 compounds went through this panel and 20% of them were active in at least one assay; those are over-represented in the sample as a whole. Calls of active or inactive are those of the source. The calls were made as follows: active = growth percent below 10; inactive = the rest.
Outcomes: active, inactive

{"COMPOUND": "CCCCCCCCn1ccc2cc(NC(=O)CN3CCN(c4nc(C)cc(N5CCCCC5)n4)CC3)ccc21", "CATEGORY": "inactive"}
{"COMPOUND": "c1ccc(Cc2cccc[n+]2C(c2ccccc2)c2ccccc2)cc1", "CATEGORY": "inactive"}
{"COMPOUND": "COc1cc(-c2nc3occn3c2-c2ccnc(NCCCNS(=O)(=O)c3ccc(O)cc3)n2)ccc1F", "CATEGORY": "inactive"}
{"COMPOUND": "O=C(/C=C/c1cccs1)Nc1ncc(Cc2ccc(Cl)c(Cl)c2)s1", "CATEGORY": "inactive"}
{"COMPOUND": "COc1ccc(Oc2nc(Nc3ccc(N4CCOCC4)cc3)ncc2NC(=O)c2cccc(C(F)(F)F)c2)cc1", "CATEGORY": "inactive"}
{"COMPOUND": "CCOC(=O)n1cc(-c2nonc2-c2cn(C)c3ccc(OC)cc23)c2cc(F)ccc21", "CATEGORY": "inactive"}
{"COMPOUND": "O=C1/C(=C/c2ccc(F)c(F)c2)CN(C(=O)C(Cl)Cl)C/C1=C\\c1ccc(F)c(F)c1", "CATEGORY": "active"}
{"COMPOUND": "Cc1ccc(/C=C2\\COc3ccc(O)c(O)c3C2=O)cc1", "CATEGORY": "active"}
{"COMPOUND": "COc1cc2c(cc1OCCCOC1=C=C=C(c3ccc4c(c3)c3cc(-c5ccc(OCCCOc6cc7c(cc6OC)C(=O)N6CCC[C@H]6C=N7)cc5)ccc3n4S(=O)(=O)c3ccc(C)cc3)C=C1)N=C[C@@H]1CCCN1C2=O", "CATEGORY": "inactive"}
{"COMPOUND": "N=C(N)c1ccc(-c2ccc(-c3ccc(Cl)c(Cl)c3)s2)cc1", "CATEGORY": "inactive"}
{"COMPOUND": "C=C1CC[C@@H]2[C@](C)(COC(C)=O)[C@H](OC(C)=O)CC[C@@]2(C)[C@@H]1CC(Nc1ccc(S(=O)(=O)Nc2nccs2)cc1)C1=CCOC1=O (stereo partly drawn)", "CATEGORY": "inactive"}
{"COMPOUND": "C/C=C(\\C)C(=O)N[C@H]1CC[C@]2(C)C3CC[C@@]4(C)C(CC[C@@H]4C(C)N(C)C)C3CCC2[C@H]1OC(C)=O (stereo partly drawn)", "CATEGORY": "active"}
{"COMPOUND": "Cc1ccc(S(=O)(=O)Nc2cc(Sc3ccccc3)c(O)c3ccccc23)cc1", "CATEGORY": "inactive"}
{"COMPOUND": "COCCOc1cc2ncnc(N3CCN(S(=O)(=O)c4ccccc4Cl)CC3)c2cc1OCCOC", "CATEGORY": "inactive"}
{"COMPOUND": "C#CCOCC1CN(C)C(=O)O1 (stereo not drawn)", "CATEGORY": "inactive"}
{"COMPOUND": "O=C(Cn1cc(CN2CCN(c3ccnc4cc(Cl)ccc34)CC2)nn1)Nc1cccc([N+](=O)[O-])c1", "CATEGORY": "inactive"}
{"COMPOUND": "O=C(NNc1ccccc1)c1ccccc1", "CATEGORY": "inactive"}
{"COMPOUND": "CN(C)CCCn1c2c(c3ccc(N4CCNCC4)cc3c1=O)C(=O)c1ccccc1-2", "CATEGORY": "active"}
